Reference source for all entries: patent US20260242735A1

- SUBJECT OF TEST: human CD33 V361A (human, UniProt P20138 18-364)
- Sequence (P20138 18-364 V361A limits assumed): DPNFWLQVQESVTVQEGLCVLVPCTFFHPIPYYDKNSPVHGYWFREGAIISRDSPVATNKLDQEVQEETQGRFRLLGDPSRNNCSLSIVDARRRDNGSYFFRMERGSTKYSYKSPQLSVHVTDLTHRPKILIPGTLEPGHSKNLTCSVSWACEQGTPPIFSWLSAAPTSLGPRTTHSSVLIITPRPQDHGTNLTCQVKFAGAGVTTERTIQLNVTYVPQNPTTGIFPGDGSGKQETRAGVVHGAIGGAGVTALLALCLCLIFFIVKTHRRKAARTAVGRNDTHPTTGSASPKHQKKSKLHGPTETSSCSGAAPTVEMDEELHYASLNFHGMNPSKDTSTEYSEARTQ
- ASSAY NAME: flow cytometry, alanine scan
Entries and their Mean % WT Binding values follow.
MEASURED ATTRIBUTE: Mean % WT Binding

• Refmab #2 (antibody, V domains shown, The alanine scan used IgG or Fab) VH: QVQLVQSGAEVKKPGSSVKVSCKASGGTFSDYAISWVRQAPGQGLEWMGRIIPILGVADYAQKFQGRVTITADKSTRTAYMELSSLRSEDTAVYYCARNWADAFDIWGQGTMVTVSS VL: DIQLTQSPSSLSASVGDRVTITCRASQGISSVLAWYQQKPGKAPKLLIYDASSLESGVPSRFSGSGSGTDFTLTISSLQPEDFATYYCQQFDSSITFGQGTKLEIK = 99.4 % of WT
• Refmab #4 (antibody, V domains shown, The alanine scan used IgG or Fab) VH: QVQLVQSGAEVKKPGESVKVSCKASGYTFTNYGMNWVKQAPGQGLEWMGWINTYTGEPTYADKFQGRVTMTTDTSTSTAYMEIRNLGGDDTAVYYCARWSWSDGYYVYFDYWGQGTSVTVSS VL: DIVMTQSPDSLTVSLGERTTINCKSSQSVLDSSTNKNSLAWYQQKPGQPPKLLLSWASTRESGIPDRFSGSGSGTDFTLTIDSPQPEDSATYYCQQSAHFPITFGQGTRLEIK = 92.4 % of WT
• Refmab #3 (antibody, V domains shown, The alanine scan used IgG or Fab) VH: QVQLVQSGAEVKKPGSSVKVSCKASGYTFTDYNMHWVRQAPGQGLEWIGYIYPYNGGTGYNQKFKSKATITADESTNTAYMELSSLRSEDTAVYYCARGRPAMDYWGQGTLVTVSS VL: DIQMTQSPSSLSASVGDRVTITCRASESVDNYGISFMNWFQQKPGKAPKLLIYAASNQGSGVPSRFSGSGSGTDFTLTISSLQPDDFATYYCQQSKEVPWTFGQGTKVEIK = 97.6 % of WT
• Refmab #1 (antibody, V domains shown, The alanine scan used IgG or Fab; also called hP67.6) VH: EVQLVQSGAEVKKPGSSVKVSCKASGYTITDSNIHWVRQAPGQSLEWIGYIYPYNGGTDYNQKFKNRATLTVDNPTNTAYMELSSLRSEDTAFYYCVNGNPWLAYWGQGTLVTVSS VL: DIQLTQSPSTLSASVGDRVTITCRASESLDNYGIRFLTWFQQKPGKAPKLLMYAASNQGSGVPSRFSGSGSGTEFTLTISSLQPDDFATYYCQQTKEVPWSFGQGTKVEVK = 88.8 % of WT
